# TEST TARGET: T1, ANK domain of Notch2 intracellular domain (N2ICD-ANK) (UniProt Q04721 1827-2038)
# T1 construct: Notch2, ANK domain of the intracellular domain; position 1827-2038, length 212 aa printed
# T1 sequence (looked up): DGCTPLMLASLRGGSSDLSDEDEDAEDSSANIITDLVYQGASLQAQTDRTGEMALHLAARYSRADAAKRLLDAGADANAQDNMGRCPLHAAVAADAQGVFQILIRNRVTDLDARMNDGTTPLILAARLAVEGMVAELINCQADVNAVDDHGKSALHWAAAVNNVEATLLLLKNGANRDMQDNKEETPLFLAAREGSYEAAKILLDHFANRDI
# EXPERIMENTAL DETAILS: SPR; BIAcore T200 (GE Healthcare); dissociation constant calculated with BIA-evaluation software; which partner was immobilised is not stated
# CONDITION: both partners purified
Bridge positions count the residues as written; N and C are the ends. Square brackets hold non-standard residues; d marks the D form. Ends that are not written are not given here. S5 = C=CCCC[C@](C)(N)C(=O)O
VALUE TYPE: Kd (nM)
Please reply with the bare figure in nM and do not write the unit itself.

Asked: Fill in the blank: the reported Kd of YAKRI[S5]YQLLSK[S5]L (staple 6-13) [SAH-mAH2-5, N1DARP-derived stapled peptide] is ____.
Given back: 539

Data origin, for the record: paper PMC10504324
